MIC values by entry
# Tested on: Salmonella enterica subsp. enterica serovar Gallinarum
# protocol.text: Antimicrobial activity was determined against Salmonella gallinarum ATCC 9184
# Type: functional

{"compound.string": "COC(=O)c1ccc(N)c(-c2ccc3c(n2)C(=O)C(=N)C=C3O)c1", "MIC": "> 50 µg/mL"}
{"compound.string": "COC(=O)c1nc(-c2ccc3c(n2)C(=O)C(=N)C(OC)=C3O)c(N)c(-c2ccc(OC)c(OC)c2O)c1C", "MIC": "> 100 µg/mL"}
{"compound.string": "COC(=O)c1cccc(-c2ccc3c(n2)C(=O)C(=N)C=C3O)n1", "MIC": "> 50 µg/mL"}
{"compound.string": "COC1=C(N)C(=O)c2nc(-c3nc(C(=O)O)c(C)c(-c4ccc(OC)c(OC)c4O)c3N)ccc2C1=O", "MIC": "1.56 µg/mL"}
{"compound.string": "COC1=C(N)C(=O)c2nc(-c3ccccn3)ccc2C1=O", "MIC": "> 100 µg/mL"}
{"compound.string": "COC(=O)c1nc(C(C)=O)c2[nH]c3ccccc3c2c1C", "MIC": "> 50 µg/mL"}
{"compound.string": "NC1=CC(=O)c2cccnc2C1=O", "MIC": "50 µg/mL"}
{"compound.string": "NC1=CC(=O)c2ccc(-c3ccccn3)nc2C1=O", "MIC": "100 µg/mL"}
{"compound.string": "NC1=CC(=O)c2ccc(-c3cc(C(=O)O)ccc3N)nc2C1=O", "MIC": "> 50 µg/mL"}
{"compound.string": "NC1=CC(=O)c2ccc(-c3cccc(C(=O)O)n3)nc2C1=O", "MIC": "> 50 µg/mL"}
{"compound.string": "COC1=C(N)C(=O)c2ncccc2C1=O", "MIC": "> 50 µg/mL"}
{"compound.string": "COC(=O)c1[nH]c(C(=O)OC)c(C)c2c3ccccc3nc1-2", "MIC": "> 50 µg/mL"}
{"compound.string": "COC(=O)c1nc(C(=O)OC)c(N)c(-c2ccc(OC)c(OC)c2O)c1C", "MIC": "> 50 µg/mL"}

* * *

IC50 values by entry
# System: B16
# protocol.text: Cytotoxicity against mouse melanoma cell culture(B-16)
# Type: functional, cell-based
reported.metric: IC50 (µg/mL)

{"compound.string": "NC1=CC(=O)c2ccc(-c3cccc(C(=O)O)n3)nc2C1=O", "test.system": "B16", "relation.qualifier": ">", "quantitative.readout": 20}
{"compound.string": "COC1=C(N)C(=O)c2nc(-c3nc(C(=O)O)c(C)c(-c4ccc(OC)c(OC)c4O)c3N)ccc2C1=O", "test.system": "B16", "relation.qualifier": "=", "quantitative.readout": 0.48}
{"compound.string": "COC(=O)c1[nH]c(-c2ccc3c(n2)C(=O)C(=N)C=C3O)c2nc3ccccc3c-2c1C", "test.system": "B16", "relation.qualifier": "=", "quantitative.readout": 3.1}
{"compound.string": "COC(=O)c1nc(-c2ccc3c(n2)C(=O)C(=N)C(OC)=C3O)c(N)c(-c2ccc(OC)c(OC)c2O)c1C", "test.system": "B16", "relation.qualifier": "=", "quantitative.readout": 1.5}

* * *

IC50 values by entry
# System: P388
# protocol.text: Cytotoxic activity against P388 mouse leukemia cell culture (9PS(P388))
# Assay type: functional, cell-based

{"compound.string": "COC1=C(N)C(=O)c2nc(-c3ccccn3)ccc2C1=O", "relation.qualifier": "=", "IC50 / µg/mL": 0.034}
{"compound.string": "COC(=O)c1ccc(N)c(-c2ccc3c(n2)C(=O)C(=N)C=C3O)c1", "relation.qualifier": "=", "IC50 / µg/mL": 0.2}
{"compound.string": "NC1=CC(=O)c2cccnc2C1=O", "relation.qualifier": "=", "IC50 / µg/mL": 0.19}
{"compound.string": "COC(=O)c1cccc(-c2ccc3c(n2)C(=O)C(=N)C=C3O)n1", "relation.qualifier": "=", "IC50 / µg/mL": 3.9}
{"compound.string": "COC1=C(N)C(=O)c2ncccc2C1=O", "relation.qualifier": "=", "IC50 / µg/mL": 0.22}
{"compound.string": "NC1=CC(=O)c2ccc(-c3cc(C(=O)O)ccc3N)nc2C1=O", "relation.qualifier": "=", "IC50 / µg/mL": 5}
{"compound.string": "NC1=CC(=O)c2ccc(-c3ccccn3)nc2C1=O", "relation.qualifier": "=", "IC50 / µg/mL": 0.0023}
{"compound.string": "COC(=O)c1nc(C(=O)OC)c(N)c(-c2ccc(OC)c(OC)c2O)c1C", "relation.qualifier": ">", "IC50 / µg/mL": 10}

Every entry's value here was drawn from ChEMBL document CHEMBL1123628.
